Data origin: the Human Domainome abundance scans (Beltran et al. 2025)

B1: Activity-dependent neuroprotector homeobox protein, residues 770 to 810; numbered along this chain, Q9H2P0 (parent)
chain: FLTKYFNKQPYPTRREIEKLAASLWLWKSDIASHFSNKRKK

Variants of: B1
Procedure Text: abundance fitness (aPCA) (normalised: wild type 0, dead -1); higher = more abundant; growth selection in yeast, the domain comes from the species named
Condition Info: Homo sapiens
Can you tell me abundance fitness for the items I'm about to list?

Query: Identify measured abundance fitness corresponding to `R39I`
Result: -0.035

Query: Let me know recorded abundance fitness for `L26S` , thanks.
Result: 0.033

Query: Find the measured abundance fitness of `F6R` and report it.
Result: -0.163

Query: # return recorded abundance fitness for entry `R15Q`
Result: -0.162
